settings: human gut metagenome, 24 h, 2 µM; further: call rule not given here
parameter: Bacterial Biotransformation

Below, each entry is followed by its recorded Bacterial Biotransformation result.
In [3]: df
Out[3]:
                                   compound                    parameter               measurement
0  OC(CCN1CCCCC1)(c1ccccc1)C1CC2C=CC1C2 (stereo not drawn) [BIPERIDEN]  Bacterial Biotransformation      Compound metabolized
1  CCN(CC)CCOCCOC(=O)C1(c2ccccc2)CCCC1.O=C(O)CC(O)(CC(=O)O)C(=O)O [CARBETAPENTANE CITRATE]  Bacterial Biotransformation      Compound metabolized
2  NS(=O)(=O)c1cc2c(cc1Cl)N=C(CSCc1ccccc1)NS2(=O)=O [BENZTHIAZIDE]  Bacterial Biotransformation  Compound NOT metabolized
3  COC(=O)Nc1nc2ccc(C(=O)c3ccccc3)cc2[nH]1 [MEBENDAZOLE]  Bacterial Biotransformation      Compound metabolized

(Q) So what's the measured Bacterial Biotransformation for this one? CN1C(C(=O)Nc2ccccn2)=C(O)c2sccc2S1(=O)=O [TENOXICAM]
(A) Compound NOT metabolized
